# TGT: CB1R (Homo sapiens, UniProt P21554)
# Sequence (P21554 whole entry): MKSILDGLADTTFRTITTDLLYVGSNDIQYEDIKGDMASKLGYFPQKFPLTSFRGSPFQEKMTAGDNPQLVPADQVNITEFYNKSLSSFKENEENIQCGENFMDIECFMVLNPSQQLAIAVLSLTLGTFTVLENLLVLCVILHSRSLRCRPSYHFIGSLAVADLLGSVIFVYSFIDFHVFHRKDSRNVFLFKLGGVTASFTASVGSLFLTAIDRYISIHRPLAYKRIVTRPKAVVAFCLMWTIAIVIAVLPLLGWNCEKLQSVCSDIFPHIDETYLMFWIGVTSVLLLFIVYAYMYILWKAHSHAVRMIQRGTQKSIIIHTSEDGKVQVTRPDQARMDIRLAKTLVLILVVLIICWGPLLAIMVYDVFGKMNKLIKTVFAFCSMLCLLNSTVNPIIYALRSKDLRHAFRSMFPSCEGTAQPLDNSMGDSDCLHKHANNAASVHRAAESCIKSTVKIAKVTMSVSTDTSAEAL
# TEST SUMMARY: cell-based
# Type: cell-based

| MOLECULE | TGT | IC50 / µM |
| --- | --- | --- |
| CCc1c(C(=O)NCCc2ccc(N3CCCCC3)cc2)[nH]c2ccc(N=C=S)cc12 [GAT100] | CB1R (Homo sapiens, UniProt P21554) | 0.741 |

###

# TGT: CB1R (Homo sapiens)
# TEST SUMMARY: cell-based

| ENTRY SMILES | IC50 |
| --- | --- |
| CCc1c(C(=O)NCCc2ccc(N3CCCCC3)cc2)[nH]c2ccc(Cl)cc12 | 236 nM |
| CCc1c(C(=O)NCCc2ccc(N3CCCCC3)cc2)[nH]c2ccc(N=C=S)cc12 | 35.8 nM |
